# system_under_test: DNA dC->dU-editing enzyme APOBEC-3F (Homo sapiens)
# assay_summary: qHTS for inhibitors of Vif-A3F interactions: Cherry picks;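 note: active compounds raise eYFP fluorescence by blocking Vif-driven A3F loss; nearly all actives have a fitted effect of over 70% in size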
# protocol_conditions: HeLa A3F-eYFP + Vif (tagged APOBEC3F with the HIV-1 protein that degrades it), eYFP fluorescence, 24 h
Out of some 2,100 compounds screened, about 590 (28%) were called active. Not shown: some 42% with an inconclusive outcome. Some of the results follow.
Think of -20% as a floor: if max response stands on it or above, it is MET; beneath it, NOT MET.

Previously resolved entries follow.
* COc1cc(OC)cc(C(=O)Nc2ccccc2C(=O)NC2CC2)c1 | NOT MET
* CC(=O)c1cc2c(cc1NS(=O)(=O)c1ccc(C)cc1)OCCO2 | NOT MET
* S=C(Nc1cccc2ccccc12)NN1CCCCCC1 | MET
* NC(=S)N/N=C/c1cccc(O)c1O | NOT MET

Decide: is the reported value of max response for COC(=O)c1c(-c2ccccc2Cl)noc1/C=C/N(C)C equal to or greater than -20%?
MET

// query: COc1ccc(N/C=C2\C(=O)CCc3c2oc2cc(Cl)c(O)c(Cl)c32)cc1
NOT MET
